tested on: EKVX NSCLC; test: NCI-60 one-dose screen, 48 h (100 = growth as untreated, 0 = no growth, -100 = all killed); details: 10 µM unless noted
About 83,000 compounds went through this panel and 20% of them were active in at least one assay; those are over-represented in the sample as a whole.
// False strictly below 90% in growth; True otherwise

compound=C#Cc1cccc(Nc2ncnc3ccc(NC(=O)c4ccccc4)cc23)c1 class_assignment=False
compound=CCCCOc1nc2ccc(C)cc2cc1/C=C/C(=O)/C=C/c1ccc2c(c1)OCO2 class_assignment=True
compound=Nc1ccc2c(c1)C(=O)C(=O)c1c-2nc2ccccn12 class_assignment=False
compound=COc1ccc(OCC(=O)OC(C)C)cc1 class_assignment=True
compound="CCc1c(C(=O)N[C@@H](C(=O)OCc2ccccc2)C(C)O)[nH]c2ccc(Cl)cc12 (stereo partly specified)" class_assignment=False
